system: XIP peptide (Xip251-270) binding; assay: XIP fragment 251-270 binding compounds – biochemical, small-molecule microarray, fluorescence 635/667 nm, 0.1 µg/mL protein, primary screen (AID 1182); conditions: fluorescent protein binding, 635 nm, higher = more signal, called active from +8 up or from −8 down
Returns True if the recorded composite z-score is greater than or equal to 0.05, and False otherwise.

>>> classname("COCCOC(=O)N1C(=O)[C@@]2(c3cc(C#CC4(O)CCCCCC4)ccc31)[C@H](C(=O)N1CCc3cc(OC)c(OC)cc3C1)[C@H]1C(=O)O[C@H](c3ccccc3)[C@H](c3ccccc3)N1[C@@H]2c1ccc(OCCO)cc1")
"True"
>>> classname("COC(=O)[C@@H]1N=C(c2ccc(OCCCO)cc2)O[C@@H]1c1ccccc1")
"True"
>>> classname("Oc1ccc2cc[n+](Cc3cc4c(cc3Br)OCO4)cc2c1")
"True"
>>> classname("COc1cc2c(cc1O)C(c1ccc(CN3CCCC3)cc1)N(Cc1cc3c(cc1Br)OCO3)CC2 (centres undefined)")
"False"
>>> classname("O=C1N(Cc2ccccc2)c2ccccc2C[C@]12N=C(c1ccc(OCCCO)cc1)O[C@@H]2c1ccccc1")
"False"
>>> classname("CN(C)c1ccc(C(O)C2C=CC3C(=O)NC(=O)C3N2Nc2ccccn2)cc1 (centres undefined)")
"False"
>>> classname("CCOC(=O)C[C@H]1[C@H](OC(=O)Cc2ccc3c(c2)OCO3)[C@@H](NC(=O)c2ccc3ccccc3n2)c2cc(OCCCO)ccc2N1C(=O)c1ccc2ccccc2n1")
"False"
>>> classname("C=CC[C@@]1(C(=O)NCCCOC)N=C(c2ccc(OCCCO)cc2)O[C@@H]1c1ccccc1")
"True"

Consider the additional molecule presented here.
Problem: Tell me whether composite z-score is at least 0.05 here: `COC(=O)[C@@]1(Cc2ccc(OC)cc2)[C@H]2c3cc(C(=O)N4CCCC4)n(CCc4c[nH]c5ccc(O)cc45)c3C[C@H]2CN1C(=O)c1ccccc1`
Result: True
